molecular target: human full length PIK3KA Wild-type (p110α/p85α complex) (Homo sapiens, UniProt P42336); construct: Recombinant, catalytically active human full length PIK3KA Wild-type and H1047R mutant were purchased; 6xHis (N); purchased EMD Millipore Sigma 14-602M; assay: PI3K-Alpha Kinase (PIK3CA) biochemical activity, wild-type (ADP-Glo); settings: Soy PI lipid substrate, 20 uM ATP
Sequence (P42336 whole entry): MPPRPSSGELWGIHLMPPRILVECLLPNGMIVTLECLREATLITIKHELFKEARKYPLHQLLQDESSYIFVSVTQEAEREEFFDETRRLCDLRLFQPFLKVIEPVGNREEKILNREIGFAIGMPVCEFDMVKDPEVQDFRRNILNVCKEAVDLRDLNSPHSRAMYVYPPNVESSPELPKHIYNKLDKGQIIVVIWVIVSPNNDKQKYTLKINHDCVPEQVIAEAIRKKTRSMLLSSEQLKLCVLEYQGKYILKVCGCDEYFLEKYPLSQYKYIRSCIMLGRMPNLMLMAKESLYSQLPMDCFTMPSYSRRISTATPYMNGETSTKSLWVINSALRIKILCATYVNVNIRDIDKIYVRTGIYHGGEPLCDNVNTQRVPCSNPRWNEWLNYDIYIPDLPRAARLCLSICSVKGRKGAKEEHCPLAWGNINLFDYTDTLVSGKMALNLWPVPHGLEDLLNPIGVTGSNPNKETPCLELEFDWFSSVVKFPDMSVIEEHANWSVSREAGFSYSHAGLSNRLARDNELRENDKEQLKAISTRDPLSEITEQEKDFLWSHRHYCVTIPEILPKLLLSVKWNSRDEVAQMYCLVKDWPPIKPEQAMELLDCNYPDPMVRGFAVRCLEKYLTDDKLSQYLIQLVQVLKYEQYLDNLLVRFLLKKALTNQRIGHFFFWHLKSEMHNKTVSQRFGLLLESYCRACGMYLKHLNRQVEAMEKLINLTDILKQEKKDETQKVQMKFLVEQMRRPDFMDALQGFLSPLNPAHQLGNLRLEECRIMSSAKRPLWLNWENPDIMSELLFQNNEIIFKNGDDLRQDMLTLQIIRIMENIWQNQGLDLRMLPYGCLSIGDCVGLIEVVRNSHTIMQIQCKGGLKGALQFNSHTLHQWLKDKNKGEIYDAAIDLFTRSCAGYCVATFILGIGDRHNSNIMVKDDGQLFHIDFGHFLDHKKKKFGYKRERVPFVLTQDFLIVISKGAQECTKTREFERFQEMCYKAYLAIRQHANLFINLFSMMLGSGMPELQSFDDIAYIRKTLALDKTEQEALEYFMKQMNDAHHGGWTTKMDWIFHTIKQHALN
Sequence (P27986 whole entry partner): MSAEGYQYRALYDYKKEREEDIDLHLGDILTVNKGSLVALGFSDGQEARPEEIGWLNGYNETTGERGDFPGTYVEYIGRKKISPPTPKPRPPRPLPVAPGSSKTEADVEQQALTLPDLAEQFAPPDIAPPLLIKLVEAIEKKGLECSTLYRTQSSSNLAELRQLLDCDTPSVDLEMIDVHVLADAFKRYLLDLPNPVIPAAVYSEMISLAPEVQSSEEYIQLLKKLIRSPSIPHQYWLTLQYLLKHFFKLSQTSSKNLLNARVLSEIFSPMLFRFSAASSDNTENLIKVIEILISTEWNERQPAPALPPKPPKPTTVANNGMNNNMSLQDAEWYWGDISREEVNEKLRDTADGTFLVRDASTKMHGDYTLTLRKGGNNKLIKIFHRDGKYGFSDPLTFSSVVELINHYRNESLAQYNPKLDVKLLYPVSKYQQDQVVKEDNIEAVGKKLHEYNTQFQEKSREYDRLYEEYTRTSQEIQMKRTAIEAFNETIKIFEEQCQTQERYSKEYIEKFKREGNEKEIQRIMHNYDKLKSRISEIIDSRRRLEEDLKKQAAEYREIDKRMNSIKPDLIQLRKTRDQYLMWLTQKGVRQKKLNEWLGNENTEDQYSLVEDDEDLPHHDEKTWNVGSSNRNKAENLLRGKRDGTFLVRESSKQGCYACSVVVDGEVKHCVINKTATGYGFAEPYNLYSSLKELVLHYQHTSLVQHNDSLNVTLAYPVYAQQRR
Some compounds, each annotated with its measured IC50.
measured.parameter: IC50

INSERT INTO results (compound, target_system, test_result) VALUES
  ('Cc1cc(C(C)Nc2ccccc2C(=O)O)c2oc(-c3cnn(-c4ccc(OC(F)(F)F)cc4)c3)cc(=O)c2c1 (single isomer, unassigned)', 'human full length PIK3KA Wild-type (p110α/p85α complex) (Homo sapiens, UniProt P42336)', '> 10 µM'),
  ('Cc1cc(C(C)Nc2ccc(C(F)(F)F)nc2C(=O)O)c2oc(-c3cccnc3)c(C)c(=O)c2c1 (single isomer, unassigned; isomer 1)', 'human full length PIK3KA Wild-type (p110α/p85α complex) (Homo sapiens, UniProt P42336)', '1 to 5 µM'),
  ('Cc1cc(C(C)Nc2ccccc2C(=O)O)c2oc(-c3cnc(OC(C)C)nc3)cc(=O)c2c1 (stereo not drawn) [Example 6]', 'human full length PIK3KA Wild-type (p110α/p85α complex) (Homo sapiens, UniProt P42336)', '> 10 µM'),
  ('Cc1cc(C(C)Nc2ccc(Cl)nc2C(=O)O)c2oc(-c3ccccn3)cc(=O)c2c1 (single isomer, unassigned; isomer 1)', 'human full length PIK3KA Wild-type (p110α/p85α complex) (Homo sapiens, UniProt P42336)', '1 to 5 µM'),
  ('Cc1cc(C(C)Nc2ccccc2C(=O)O)c2oc(-c3cnc(OC(C)C)nc3)cc(=O)c2c1 (single isomer, unassigned; isomer 1) [Example 41]', 'human full length PIK3KA Wild-type (p110α/p85α complex) (Homo sapiens, UniProt P42336)', '> 10 µM'),
  ('Cc1cc(C(C)Nc2ccccc2C(=O)O)c2oc(-c3cccnc3)cc(=O)c2c1 (single isomer, unassigned; isomer 2)', 'human full length PIK3KA Wild-type (p110α/p85α complex) (Homo sapiens, UniProt P42336)', '1 to 5 µM');

---

Some molecules, each annotated with its measured pIC50.
molecular target: PI3K-α (PIK3CA) in MDA-MB-453 cells (Homo sapiens, UniProt P42336); test: PI3K-Alpha Kinase (PIK3CA) activity in vitro cell based assay (AlphaLisa SureFire); conditions: 0% FBS, 3 hours treatment, read-out: PI3K-α (PIK3CA) in vitro cell based assay IC50
Sequence (P42336 whole entry): as the sequence (P42336 whole entry) above
Sequence (P27986 2-724, further chain): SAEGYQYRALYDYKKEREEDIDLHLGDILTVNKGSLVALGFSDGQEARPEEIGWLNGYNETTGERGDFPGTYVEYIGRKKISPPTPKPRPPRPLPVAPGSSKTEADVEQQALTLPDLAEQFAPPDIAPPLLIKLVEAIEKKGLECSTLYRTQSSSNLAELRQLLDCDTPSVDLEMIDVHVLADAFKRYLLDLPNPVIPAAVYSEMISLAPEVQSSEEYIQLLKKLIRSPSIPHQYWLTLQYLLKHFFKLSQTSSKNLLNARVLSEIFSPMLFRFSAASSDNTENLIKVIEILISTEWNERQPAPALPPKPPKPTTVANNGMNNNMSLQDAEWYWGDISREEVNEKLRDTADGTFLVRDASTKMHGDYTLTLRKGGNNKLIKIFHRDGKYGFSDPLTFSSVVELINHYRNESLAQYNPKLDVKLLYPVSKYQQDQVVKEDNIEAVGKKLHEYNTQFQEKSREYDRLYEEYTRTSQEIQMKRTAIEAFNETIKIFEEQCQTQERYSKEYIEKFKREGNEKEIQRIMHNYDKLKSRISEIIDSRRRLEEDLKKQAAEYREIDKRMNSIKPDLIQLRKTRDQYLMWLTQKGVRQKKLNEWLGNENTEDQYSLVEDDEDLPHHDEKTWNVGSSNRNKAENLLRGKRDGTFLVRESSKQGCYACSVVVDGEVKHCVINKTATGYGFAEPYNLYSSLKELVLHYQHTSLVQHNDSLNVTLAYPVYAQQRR
pIC50: −log10 of the molar value.
measured.parameter: pIC50

INSERT INTO assay_data (molecule, target_system, test_result) VALUES
  ('Cc1cc(C(C)Nc2cccc(F)c2C(=O)O)c2oc(-c3cnn(-c4ccc(C#N)cc4)c3)cc(=O)c2c1 (single isomer, unassigned; isomer 1) [Example 112]', 'PI3K-α (PIK3CA) in MDA-MB-453 cells (Homo sapiens, UniProt P42336)', '< 6.30'),
  ('Cc1cc(C(C)Nc2ccccc2C(=O)O)c2oc(-c3cnc(N(C)C)s3)c(C)c(=O)c2c1 (single isomer, unassigned; isomer 1)', 'PI3K-α (PIK3CA) in MDA-MB-453 cells (Homo sapiens, UniProt P42336)', '> 7.30'),
  ('Cc1cc(C(C)Nc2ccc(C)nc2C(=O)O)c2oc(-c3ccccn3)c(C)c(=O)c2c1 (single isomer, unassigned; isomer 1)', 'PI3K-α (PIK3CA) in MDA-MB-453 cells (Homo sapiens, UniProt P42336)', '7.00 to 7.30'),
  ('COc1cccc(-c2cc(=O)c3cc(C)cc(C(C)Nc4ccccc4C(=O)O)c3o2)n1 (single isomer, unassigned; isomer 1) [Example 21]', 'PI3K-α (PIK3CA) in MDA-MB-453 cells (Homo sapiens, UniProt P42336)', '< 6.30'),
  ('Cc1cc(C(C)Nc2ccccc2C(=O)O)c2oc(-c3cncc(F)c3)c(C)c(=O)c2c1 (single isomer, unassigned; isomer 1)', 'PI3K-α (PIK3CA) in MDA-MB-453 cells (Homo sapiens, UniProt P42336)', '> 7.30'),
  ('Cc1cc(C(C)Nc2ccccc2C(=O)O)c2oc(-c3ccccn3)c(C)c(=O)c2c1 (single isomer, unassigned; isomer 1)', 'PI3K-α (PIK3CA) in MDA-MB-453 cells (Homo sapiens, UniProt P42336)', '> 7.30'),
  ('Cc1cc(C(C)Nc2ccccc2C(=O)O)c2oc(-c3cnc(OC(C)C)nc3)cc(=O)c2c1 (single isomer, unassigned; isomer 1) [Example 41]', 'PI3K-α (PIK3CA) in MDA-MB-453 cells (Homo sapiens, UniProt P42336)', '< 6.30'),
  ('Cc1cc(C(C)Nc2ccc(F)cc2C(=O)O)c2oc(-c3cccnc3)c(C)c(=O)c2c1 (single isomer, unassigned; isomer 1)', 'PI3K-α (PIK3CA) in MDA-MB-453 cells (Homo sapiens, UniProt P42336)', '> 7.30'),
  ('Cc1cc(C(C)Nc2ccccc2C(=O)O)c2oc(-c3cnn(C)c3)c(C)c(=O)c2c1 (single isomer, unassigned; isomer 1)', 'PI3K-α (PIK3CA) in MDA-MB-453 cells (Homo sapiens, UniProt P42336)', '> 7.30'),
  ('Cc1cc(C(C)Nc2ccc(C(F)(F)F)nc2C(=O)O)c2oc(-c3cccnc3)c(C)c(=O)c2c1 (single isomer, unassigned; isomer 1)', 'PI3K-α (PIK3CA) in MDA-MB-453 cells (Homo sapiens, UniProt P42336)', '> 7.30'),
  ('Cc1cc(C(C)Nc2ccc(F)c(F)c2C(=O)O)c2oc(-c3cnn(-c4ccc(C#N)cc4)c3)cc(=O)c2c1 (single isomer, unassigned; isomer 1)', 'PI3K-α (PIK3CA) in MDA-MB-453 cells (Homo sapiens, UniProt P42336)', '< 6.30');

---

target: human full length PIK3KA Wild-type (p110α/p85α complex) (Homo sapiens); construct: Recombinant, catalytically active human full length PIK3KA Wild-type and H1047R mutant were purchased; 6xHis (N); purchased EMD Millipore Sigma 14-602M; test: PI3K-Alpha Kinase (PIK3CA) biochemical activity, wild-type (ADP-Glo); conditions: Soy PI lipid substrate, 20 uM ATP
measured.parameter: IC50

INSERT INTO measurements (molecule, measured_parameter, test_result) VALUES
  ('Cc1cc(C(C)Nc2ccccc2C(=O)O)c2oc(-c3cnn(-c4ccc(C#N)cc4F)c3)cc(=O)c2c1 (single isomer, unassigned) [Example 104]', 'IC50', '> 10000 nM'),
  ('CC(Nc1ccccc1C(=O)O)c1cc(C(F)(F)F)cc2c(=O)cc(-c3cnn(-c4ccc(C#N)cc4)c3)oc12 (single isomer, unassigned; isomer 1) [Example 99]', 'IC50', '1000 to 5000 nM'),
  ('Cc1cc(C(C)Nc2ccccc2C(=O)O)c2oc(-c3cnn(-c4ccc(C#N)cn4)c3)cc(=O)c2c1 (single isomer, unassigned) [Example 83]', 'IC50', '> 10000 nM'),
  ('CC(Nc1ccccc1C(=O)O)c1cc(F)cc2c(=O)cc(-c3cnn(-c4cccnc4)c3)oc12 (single isomer, unassigned) [Example 55]', 'IC50', '5000 to 10000 nM'),
  ('Cc1cc(C(C)Nc2ccccc2C(=O)O)c2oc(-c3cncc(C#N)c3)c(C)c(=O)c2c1 (single isomer, unassigned) [Example 125]', 'IC50', '500 to 1000 nM'),
  ('Cc1cc(C(C)Nc2ccccc2C(=O)O)c2oc(-c3ccc(S(C)(=O)=O)nc3)cc(=O)c2c1 (single isomer, unassigned; isomer 1) [Example 39]', 'IC50', '> 10000 nM'),
  ('Cc1c(-c2ccccn2)oc2c(C(C)Nc3ccc(Cl)nc3C(=O)O)cc(C(F)(F)F)cc2c1=O (single isomer, unassigned; isomer 1) [Example 61]', 'IC50', '500 to 1000 nM'),
  ('Cc1cc(C(C)Nc2ccc(F)c(F)c2C(=O)O)c2oc(-c3ccccn3)c(C)c(=O)c2c1 (single isomer, unassigned; isomer 1) [Example 128]', 'IC50', '500 to 1000 nM'),
  ('Cc1cc(C(C)Nc2ccccc2C(=O)O)c2oc(-c3cnc(C4CC4)nc3)cc(=O)c2c1 (single isomer, unassigned; isomer 2) [Example 26]', 'IC50', '5000 to 10000 nM'),
  ('Cc1cc(C(C)Nc2ccccc2C(=O)O)c2oc(-c3cn(-c4ccc(C#N)cc4)nn3)cc(=O)c2c1 (single isomer, unassigned) [Example 124]', 'IC50', '1000 to 5000 nM'),
  ('Cc1cc(C(C)Nc2ccccc2C(=O)O)c2oc(-c3cnn(-c4ccccn4)c3)cc(=O)c2c1 (single isomer, unassigned) [Example 108]', 'IC50', '1000 to 5000 nM'),
  ('Cc1cc(C(C)Nc2ccc(C)nc2C(=O)O)c2oc(-c3cccnc3)c(C)c(=O)c2c1 (single isomer, unassigned; isomer 1) [Example 118]', 'IC50', '1000 to 5000 nM'),
  ('Cc1cc(C(C)Nc2ccccc2C(=O)O)c2oc(-c3cnn(-c4ccccc4C#N)c3)cc(=O)c2c1 (single isomer, unassigned) [Example 107]', 'IC50', '> 10000 nM'),
  ('Cc1cc(C(C)Nc2ccccc2C(=O)O)c2oc(-c3cccnc3)c(C)c(=O)c2c1 (single isomer, unassigned; isomer 1) [Example 25]', 'IC50', '500 to 1000 nM'),
  ('Cc1cc(C(C)Nc2ccccc2C(=O)O)c2oc(-n3cccn3)cc(=O)c2c1 (single isomer, unassigned) [Example 58]', 'IC50', '5000 to 10000 nM'),
  ('Cc1cc(C(C)Nc2ccc(C)nc2C(=O)O)c2oc(-c3ccccn3)c(C)c(=O)c2c1 (single isomer, unassigned; isomer 1) [Example 122]', 'IC50', '5000 to 10000 nM'),
  ('Cc1cc(C(C)Nc2ccccc2C(=O)O)c2oc(-c3cnn(-c4cccc(C#N)c4)c3)cc(=O)c2c1 (single isomer, unassigned) [Example 54]', 'IC50', '1000 to 5000 nM'),
  ('Cc1cc(C(C)Nc2ccc(Cl)nc2C(=O)O)c2oc(-c3ccccn3)c(C)c(=O)c2c1 (single isomer, unassigned) [Example 121]', 'IC50', '1000 to 5000 nM'),
  ('Cc1cc(C(C)Nc2ccc(Cl)nc2C(=O)O)c2oc(-c3cccnc3)c(C)c(=O)c2c1 (single isomer, unassigned; isomer 1) [Example 115]', 'IC50', '500 to 1000 nM'),
  ('Cc1cc(C(C)Nc2ccccc2C(=O)O)c2oc(-c3cnn(-c4cccc(C#N)c4)c3)c(C)c(=O)c2c1 (single isomer, unassigned) [Example 74]', 'IC50', '500 to 1000 nM'),
  ('Cc1cc(C(C)Nc2ccccc2C(=O)O)c2oc(-c3cccc(C(F)F)n3)c(C)c(=O)c2c1 (single isomer, unassigned) [Example 77]', 'IC50', '500 to 1000 nM'),
  ('COc1ccc(-c2cc(=O)c3cc(C)cc(C(C)Nc4ccccc4C(=O)O)c3o2)cn1 (single isomer, unassigned; isomer 2) [Example 20]', 'IC50', '1000 to 5000 nM'),
  ('COc1ccc(-c2oc3c(C(C)Nc4ccccc4C(=O)O)cc(C)cc3c(=O)c2C)cn1 (single isomer, unassigned) [Example 65]', 'IC50', '1000 to 5000 nM');
